Target: His tagged PTPN2 (TC45) protein (Homo sapiens, UniProt P17706)
Sequence (P17706 with tags, fused parts or gaps isoform P17706-2): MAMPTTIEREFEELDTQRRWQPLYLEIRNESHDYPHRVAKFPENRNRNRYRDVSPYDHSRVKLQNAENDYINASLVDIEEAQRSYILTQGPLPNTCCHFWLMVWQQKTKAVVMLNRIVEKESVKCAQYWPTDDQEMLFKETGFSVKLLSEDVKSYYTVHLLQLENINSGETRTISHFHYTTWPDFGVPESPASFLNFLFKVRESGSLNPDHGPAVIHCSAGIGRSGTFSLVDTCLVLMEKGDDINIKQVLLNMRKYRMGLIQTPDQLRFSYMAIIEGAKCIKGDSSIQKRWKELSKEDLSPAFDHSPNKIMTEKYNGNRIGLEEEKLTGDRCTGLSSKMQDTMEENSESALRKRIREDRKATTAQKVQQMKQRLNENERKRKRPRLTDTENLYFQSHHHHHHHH
valueKind: IC50

API: value(readout= IC50, system= His tagged PTPN2 (TC45) protein (Homo sapiens, UniProt P17706), query= C=CCC1(N)CCc2cc(O)c(N3CC(=O)NS3(=O)=O)c(F)c2C1 (centres unmarked) [Compound 240] )
0.01 to 0.1 µM

Entry to check: CC(O)CCN1CCc2cc(O)c(N3CC(=O)NS3(=O)=O)c(F)c2C1 (centres unmarked) [Compound 242]
0.01 to 0.1 µM

Also, O=C1CN(c2c(O)cc3c(c2F)CC(NCCC2CC2)CC3)S(=O)(=O)N1 (centres unmarked) [Compound 101] please.
0.001 to 0.01 µM

// query: O=C1CN(c2c(O)cc3c(c2F)CC(OCC2CC2)CC3)S(=O)(=O)N1 (centres unmarked) [Compound 107]
0.01 to 0.1 µM

// next record CC(C)CCCC1CCc2cc(O)c(N3CC(=O)NS3(=O)=O)c(F)c2C1 (centres unmarked) [Compound 323]
0.001 to 0.01 µM

For O=C1CN(c2c(O)cc3c(c2F)C[C@H](NCCC(F)F)CC3)S(=O)(=O)N1 (single isomer, unassigned) [Compound 260] then?
0.001 to 0.01 µM

Please give the result for CC(C)CCN(CCc1ccccn1)C1CCc2cc(O)c(N3CC(=O)NS3(=O)=O)c(F)c2C1 (centres unmarked) [Compound 167] too.
0.001 to 0.01 µM

And O=C1CN(c2c(O)cc3c(c2F)CC(OC(=O)Nc2ccccc2)CC3)S(=O)(=O)N1 (centres unmarked) [Compound 149] ?
0.001 to 0.01 µM
